Below, each entry is listed alongside its reported pIC50.
# System: TGF-β
# Assay explanation: AlphaScreen SureFire p-SMAD3 (Ser423/425) assay, TGF-β-stimulated cells
# Assay type: cell-based
# Assay setup: Mus musculus, MPC-11, read-out: TGF-β: inhibition of TGF-β signaling, TGF-β pSMAD (MPC-11), p-SMAD3 (Ser423/425) AlphaScreen in cell lysate, TGF-β stimulation
pIC50: −log10 of the molar value.

Study these solved cases before continuing.
[[record]]
compound = "Clc1cccc(-c2nc3n(c2-c2ccc4nccnc4c2)CCC3)c1 [Compound 192]"
recorded_result = "6.00 to 7.00"

[[record]]
compound = "Cc1cc(-c2nc3n(c2-c2ccc4[nH]ncc4c2)CCC3)ccc1F [Compound 172]"
recorded_result = "7.00 to 7.30"

[[record]]
compound = "Cc1cc(F)c(-c2nc3n(c2-c2ccc4ncccc4c2)CCC3)cc1F [Compound 287]"
recorded_result = "< 6.00"

[[record]]
compound = "Fc1cccc(-c2nc3n(c2-c2ccc4nccnc4c2)CCC3)c1 [Compound 196]"
recorded_result = "< 6.00"

[[record]]
compound = "Cc1cc(F)ccc1-c1nc2n(c1-c1ccc3nccnc3c1)CCC2 [Compound 294]"
recorded_result = "< 6.00"


Qu. Provide one value: measured pIC50 of Fc1ccc(-c2nc3n(c2-c2ccc4ncsc4c2)CC2(CCCC2)C3)cc1 [Compound 325]
Ans. < 6.00

Qu. Provide one value: measured pIC50 of Fc1ccc(-c2nc3n(c2-c2ccc4ncsc4c2)CCC3)c(F)c1F [Compound 226]
Ans. 6.00 to 7.00

Qu. Provide one value: measured pIC50 of COCCOc1cnc2ccc(-c3c(-c4cc(F)cc(F)c4F)nc4n3CCN4)cc2n1 [Compound 117]
Ans. < 6.00

Qu. Provide one value: measured pIC50 of CCOC(=O)C1CCC2(CC1)Cc1nc(-c3ccc(F)cc3)c(-c3ccc4ncnn4c3)n1C2 (stereo not drawn) [Compound 77]
Ans. < 6.00
